- Tested on: Saccharomyces cerevisiae
- experimentalDetails: protein stability index of tFT-peptide fusion (C-terminal peptide) (PSI (0-1 scale)); higher = more stable (slower turnover)
- testParameters: genetic background: das1 deletion; temperature: 30 C
attributeMeasured: protein stability index
// response body must contain only the number

Data point: LDLPFESGIACF ; protein stability index = 0.259

Data point: RVFGWIEVEVEG ; protein stability index = 0.403

Data point: STNMDNRIRTLA ; protein stability index = 0.638

Data point: FLCIFFFFLISF ; protein stability index = 0.261

Data point: INKKKKMIITKI ; protein stability index = 0.662

Data point: CPMFVKFFFCLY ; protein stability index = 0.465

Data point: DLIGSVRRLFCV ; protein stability index = 0.621

Data point: WCGLFCRSVFVV ; protein stability index = 0.263

Data point: VFLLCLGFLVFS ; protein stability index = 0.258

Data point: RGGVLYVSIRCK ; protein stability index = 0.228

Data point: YSIHYLRFFSLF ; protein stability index = 0.614

Data point: GGLLSQLLRSIG ; protein stability index = 0.617

Data point: LVSCGNFLVFCF ; protein stability index = 0.234

Data point: VGDIRSFALWYA ; protein stability index = 0.661

Data point: PLRKYLRHLLSL ; protein stability index = 0.647

Data point: IDSEVHLWKRSA ; protein stability index = 0.642

Data point: AVCVVVMAVFVG ; protein stability index = 0.297

Data point: FACLTPFCLCLT ; protein stability index = 0.422

Data point: FCIFAMQICTSA ; protein stability index = 0.112

###

- System: Saccharomyces cerevisiae
- experimentalDetails: protein stability index of tFT-peptide fusion (C-terminal peptide) (PSI (0-1 scale)); higher = more stable (slower turnover)
- testParameters: genetic background: das1 deletion; temperature: 30 C
I'd be grateful if you could share measured protein stability index for these entries.

Data point: DGEFVVSDLRLR [YOR283W C-terminal 12 aa] ; protein stability index = 0.708

Data point: QAKKSNSCCIIM [YKT6 C-terminal 12 aa] ; protein stability index = 0.732

Data point: GNNNCPLHMDYI [STE5 C-terminal 12 aa] ; protein stability index = 0.727

Data point: GILCSLMEFFTN [TDA6 C-terminal 12 aa] ; protein stability index = 0.727

Data point: KGTCGCGESFMV [ISA1 C-terminal 12 aa] ; protein stability index = 0.71

Data point: PGTRGRVASKFL [MIM1 C-terminal 12 aa] ; protein stability index = 0.71

Data point: VVGFYFQGALSE [VNX1 C-terminal 12 aa] ; protein stability index = 0.673

Data point: RSRSINGDWRKD [PAN5 C-terminal 12 aa] ; protein stability index = 0.684

Data point: TLTQEEINELST [LTE1 C-terminal 12 aa] ; protein stability index = 0.696

Data point: SAQDSDIDLQDA [MCM7 C-terminal 12 aa] ; protein stability index = 0.695

Data point: KDETPEDNLEDK [VBA3 C-terminal 12 aa] ; protein stability index = 0.69

Data point: IYYMEQMLGKTQ [HSK3 C-terminal 12 aa] ; protein stability index = 0.696

Data point: VSGFYDHDINGY [APJ1 C-terminal 12 aa] ; protein stability index = 0.753

Data point: AVSVPRISSPMH [ICS3 C-terminal 12 aa] ; protein stability index = 0.703

Data point: ERNPSQRPQRRY [RPS10B C-terminal 12 aa] ; protein stability index = 0.686

Data point: CLSDIAKVLRNQ [PBP4 C-terminal 12 aa] ; protein stability index = 0.661

Data point: SEIVDISQLPPG [ILV6 C-terminal 12 aa] ; protein stability index = 0.681

Data point: AYTEVKAVRIKL [ALD6 C-terminal 12 aa] ; protein stability index = 0.674

Data point: FSSSVMIIMKAS [NFT1 C-terminal 12 aa] ; protein stability index = 0.519

Data point: HPFLLWQGQVFF [YCR022C C-terminal 12 aa] ; protein stability index = 0.729

Data point: TCEACGNRWKFS [DST1 C-terminal 12 aa] ; protein stability index = 0.733

Data point: TEPESDTEVETS [WHI5 C-terminal 12 aa] ; protein stability index = 0.676

Data point: NNVDVSWVDKLV [STB5 C-terminal 12 aa] ; protein stability index = 0.712

Data point: ISIALEGHTLFL [PDE1 C-terminal 12 aa] ; protein stability index = 0.715

Data point: KDEPVKAHNKLK [SAS5 C-terminal 12 aa] ; protein stability index = 0.693

###

- Tested on: Saccharomyces cerevisiae
- experimentalDetails: protein stability index of tFT-peptide fusion (C-terminal peptide) (PSI (0-1 scale)); higher = more stable (slower turnover)
- testParameters: genetic background: wild type; temperature: 30 C
Kindly return rule met if reported protein stability index is no lower than 0.7; return rule not met if it is lower.

Answer whether protein stability index of GVECGSVCGGGG is greater than or equal to 0.7.
rule not met

Answer whether protein stability index of SPSSPPPSPPPA is greater than or equal to 0.7.
rule met

Answer whether protein stability index of YFYIRLGIAYMM is greater than or equal to 0.7.
rule not met

Answer whether protein stability index of QDAPPSTPPRPL is greater than or equal to 0.7.
rule met

Answer whether protein stability index of PFPSPSRHSLFP is greater than or equal to 0.7.
rule met

Answer whether protein stability index of GVIGPFSHDGCA is greater than or equal to 0.7.
rule not met

Answer whether protein stability index of STAFRDSAMRDP is greater than or equal to 0.7.
rule not met

Answer whether protein stability index of GLVFSFSACPVL is greater than or equal to 0.7.
rule not met

Answer whether protein stability index of VRFLLSLCCALL is greater than or equal to 0.7.
rule not met

Answer whether protein stability index of SPSTSIPPLPAS is greater than or equal to 0.7.
rule met

Answer whether protein stability index of SSGTLSPLSPVP is greater than or equal to 0.7.
rule not met

Answer whether protein stability index of FCIFAMQICTSA is greater than or equal to 0.7.
rule not met

###

- Tested on: Saccharomyces cerevisiae
- experimentalDetails: protein stability index of tFT-peptide fusion (C-terminal peptide) (PSI (0-1 scale)); higher = more stable (slower turnover)
- testParameters: genetic background: wild type; temperature: 30 C
Kindly return Satisfied if reported protein stability index is no lower than 0.6; return Not satisfied if it is lower.

Answer whether protein stability index of DMSVVCDRVLFD is greater than or equal to 0.6.
Satisfied

Answer whether protein stability index of GVGVLGGGYMCL is greater than or equal to 0.6.
Satisfied

Answer whether protein stability index of VSPNSFVGRPCF is greater than or equal to 0.6.
Satisfied

Answer whether protein stability index of RGGPLSSGVVLV is greater than or equal to 0.6.
Satisfied

Answer whether protein stability index of VYKSTHKIYILT is greater than or equal to 0.6.
Not satisfied

Answer whether protein stability index of RSGRCWSFPFSV is greater than or equal to 0.6.
Satisfied

Answer whether protein stability index of PPHSIPSPSHPR is greater than or equal to 0.6.
Satisfied

Answer whether protein stability index of GDTRILKSRPEI is greater than or equal to 0.6.
Satisfied

Answer whether protein stability index of ALVGEVLWFQLV is greater than or equal to 0.6.
Not satisfied

###

- Tested on: Saccharomyces cerevisiae
- experimentalDetails: protein stability index of tFT-peptide fusion (C-terminal peptide) (PSI (0-1 scale)); higher = more stable (slower turnover)
- testParameters: genetic background: das1 deletion; temperature: 30 C
I'd be grateful if you could share measured protein stability index for these entries.
// response body must contain only the number

Data point: PKYKEEESRSAV [RSN1 C-terminal 12 aa] ; protein stability index = 0.678

Data point: TTVDRTGNGAFW [YLR154C-H C-terminal 12 aa] ; protein stability index = 0.703

Data point: DKRNLLEILDFS [RRT13 C-terminal 12 aa] ; protein stability index = 0.72

Data point: RRAAESGKLKME [YNL108C C-terminal 12 aa] ; protein stability index = 0.693

Data point: MKQLEKAGVRFE [FMP33 C-terminal 12 aa] ; protein stability index = 0.687

Data point: KTATTLPGRRFV [LUC7 C-terminal 12 aa] ; protein stability index = 0.692

Data point: VFLYRKRIFIKL [GWT1 C-terminal 12 aa] ; protein stability index = 0.606

Data point: NDQNKNKQNAKR [YIL156W-A C-terminal 12 aa] ; protein stability index = 0.708

Data point: MNSAMNVQPTGF [CHC1 C-terminal 12 aa] ; protein stability index = 0.695

Data point: HCGARLTVIPKK [YER137C C-terminal 12 aa] ; protein stability index = 0.693

Data point: ATAKEWTKKYAV [UBC5 C-terminal 12 aa] ; protein stability index = 0.7

Data point: KNEDSEVEDDLI [CUS2 C-terminal 12 aa] ; protein stability index = 0.703

Data point: IIRSEKKKKEEQ [YBR292C C-terminal 12 aa] ; protein stability index = 0.748

Data point: ISKLKGISKPSP [MDS3 C-terminal 12 aa] ; protein stability index = 0.682

Data point: DDDNEDVEMSDA [NOC2 C-terminal 12 aa] ; protein stability index = 0.668

Data point: AHRENIAFPPQF [YHR033W C-terminal 12 aa] ; protein stability index = 0.739

Data point: KREKTMRNSMLP [YIR036W-A C-terminal 12 aa] ; protein stability index = 0.684

Data point: FHHTSKTFAFAD [YGR219W C-terminal 12 aa] ; protein stability index = 0.696

Data point: LWNLSDNCKNTV [MMS1 C-terminal 12 aa] ; protein stability index = 0.707

Data point: SNHECSQINLLE [YCL021W C-terminal 12 aa] ; protein stability index = 0.695

Data point: PPNSTSTNPYSS [SKG3 C-terminal 12 aa] ; protein stability index = 0.729

Data point: GRGAISYSDITI [PEP5 C-terminal 12 aa] ; protein stability index = 0.707

Data point: FLPINVNDVPST [RGD3 C-terminal 12 aa] ; protein stability index = 0.716

Data point: VDDYVAAGFQTL [SUT2 C-terminal 12 aa] ; protein stability index = 0.737

Data point: LQFILPSMNLAN [GPB1 C-terminal 12 aa] ; protein stability index = 0.692

Data point: LFTCTDPNDTIE [MMS4 C-terminal 12 aa] ; protein stability index = 0.721

Data point: STITSMNPDTTK [VHS2 C-terminal 12 aa] ; protein stability index = 0.711

Data point: EKKSKKEKKEKK [NOP58 C-terminal 12 aa] ; protein stability index = 0.747

Data point: TLFDLIEKKVTA [TAL1 C-terminal 12 aa] ; protein stability index = 0.67

Data point: NMGGWVLGGNAR [SND1 C-terminal 12 aa] ; protein stability index = 0.721

Data point: LVYENVRVPRYL [IFM1 C-terminal 12 aa] ; protein stability index = 0.697

Data point: EILGTDEPTVRT [PGM1 C-terminal 12 aa] ; protein stability index = 0.693

Data point: SLSSLSNQRCTT [YCR023C C-terminal 12 aa] ; protein stability index = 0.709

Data point: FDYDFLFGNDFA [OAF1 C-terminal 12 aa] ; protein stability index = 0.791

Data point: TATAPRLFDKLK [QCR6 C-terminal 12 aa] ; protein stability index = 0.701

Data point: TSSTPLVIVDSK [HXT10 C-terminal 12 aa] ; protein stability index = 0.672

Data point: VHDQTNLELYYL [HUB1 C-terminal 12 aa] ; protein stability index = 0.708

Data point: DVKLLPPPKKRN [NUC1 C-terminal 12 aa] ; protein stability index = 0.68

Data point: EVPVNTADRGRL [PMU1 C-terminal 12 aa] ; protein stability index = 0.701

Data point: EKIKKILSELKK [NKP1 C-terminal 12 aa] ; protein stability index = 0.705

Data point: FWFLFPLRLPGG [IRC16 C-terminal 12 aa] ; protein stability index = 0.577

Data point: LKAVCPPDAGFA [YOR387C C-terminal 12 aa] ; protein stability index = 0.709

Data point: EDYAYWGNRQLY [PER1 C-terminal 12 aa] ; protein stability index = 0.713

Data point: GVFEADGLEAVH [YLR235C C-terminal 12 aa] ; protein stability index = 0.717

Data point: KARPFKCSDKKQ [MZM1 C-terminal 12 aa] ; protein stability index = 0.718

Data point: GAVYFFSKARKA [COX26 C-terminal 12 aa] ; protein stability index = 0.721

Data point: STKATPTDLSKL [MLS1 C-terminal 12 aa] ; protein stability index = 0.756

Data point: IDIPISVRQVTK [BUL1 C-terminal 12 aa] ; protein stability index = 0.707

Data point: IELQLTEIPKHK [FIN1 C-terminal 12 aa] ; protein stability index = 0.701

The values you see were collected from the supplement of paper PMC10724198.
